# target or test system: T1, Human CD2 (recombinant extracellular domain, Avi-tagged) (human, UniProt P06729 25-209, site selectively biotinylated during expression (C-terminal Avi-Tag, BirA co-transfection))
# T1 construct: Produced in HEK293 cells; also called recombinant human CD2
# T1 sequence: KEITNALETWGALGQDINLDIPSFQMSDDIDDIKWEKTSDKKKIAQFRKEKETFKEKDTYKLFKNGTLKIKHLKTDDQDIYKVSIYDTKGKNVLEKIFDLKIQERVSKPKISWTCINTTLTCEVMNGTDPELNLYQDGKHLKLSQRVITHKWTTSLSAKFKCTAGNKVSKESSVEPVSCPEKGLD
# test method notes: ITC; 100 uM CD2 titrated into 10 uM CD58 variant in HBS
measurement name: n (binding stoichiometry)

I would be grateful if you could share the reported n (binding stoichiometry) for CD58_IgV (ligand, also called CD58 domain 1; IgV WT) SQQIYGVVYGNVTFHVPSNVPLKEVLWKKQKDKVAELENSEFRAFSSFKNRVYLDTVSGSLTIYNLTSSDEDEYEMESPNITDTMKFFLYVLESGGGGSHHHHHHHH .
0.96

Now give it for CD58 IgV V45C_M114C (ligand, Disulfide-stabilized variant) SQQIYGVVYGNVTFHCPSNVPLKEVLWKKQKDKVAELENSEFRAFSSFKNRVYLDTVSGSLTIYNLTSSDEDEYEMESPNITDTCKFFLYVLESGGGGSHHHHHHHH too.
0.88

// next record CD58 IgV V45C_M105C (ligand, Disulfide-stabilized variant) SQQIYGVVYGNVTFHCPSNVPLKEVLWKKQKDKVAELENSEFRAFSSFKNRVYLDTVSGSLTIYNLTSSDEDEYECESPNITDTMKFFLYVLESGGGGSHHHHHHHH
0.97
